- Test Protocol: Pharmacokinetic study, 3 mg/kg IV, 10 mg/kg PO and 10 mg/kg PO QD*3, plasma, liver and bone
- Type: in vivo, mouse
- Conditions Used: female, C57BL/6 J, mouse, plasma, iv, 3 mg/kg, IV, Time 0.5 h; individual values (1)-(3); read-out: Plasma concentration
- Description: The concentration of compound in plasma, liver, and long bones was detected using liquid chromatography tandem mass spectrometry (LC-MS/MS). […] IV administration, one 10 mg/kg PO administration and three 10 mg/kg PO administrations (QD*3). a Plasma, b liver and c bone profiles in female mice. The actual concentration (ng/g) is the detected value (ng/mL) multiplied by 4. […] Results are expressed as the mean ± SEM.
Quantity: concentration at 0.5 h (ng/mL)
Reply with just the number (in ng/mL).

Input line: Quickly give me recorded concentration at 0.5 h for O=C1Nc2ccc(-c3cc(C(F)(F)F)cc(C(F)(F)F)c3)cc2C(=O)N2CCN(C(=O)COc3ccc(OC(F)(F)F)cc3I)C[C@@H]12 [compound 6641]
Output line: 721
